Tested on: T-47D
Test: NCI-60 single dose screen, sulforhodamine B
Type: cell-based, human
Details: Breast cancer T-47D; single dose 10^−5 M
endpoint name: GI% at 10^−5 M

compound: O=c1c2ccccc2nc(COc2ccccc2)n1N=CC=Cc1ccccc1 [Compound 6b]
measured: – (– means GI < 10%)
//
compound: COc1cc(C=Nn2c(COc3ccccc3)nc3ccccc3c2=O)ccc1O [Compound 6a]
measured: – (– means GI < 10%)
//
compound: O=c1c2ccccc2nc(COc2ccccc2)n1NS(=O)(=O)c1ccccc1 [Compound 5a]
measured: – (– means GI < 10%)
//
compound: Cc1ccc(S(=O)(=O)Nn2c(COc3ccccc3)nc3ccccc3c2=O)cc1 [Compound 5b]
measured: – (– means GI < 10%)
//
compound: O=C(CNn1c(COc2ccccc2)nc2ccccc2c1=O)Nc1ccc(Cl)cc1 [Compound 4c]
measured: 29.33%
